Cited source: patent US20110196000A1

Measured time of heading of wheat (ears emerged) accompanies every entry in the list below.
System: infection-free wheat plants of the cultivar Passat
Assay overview: Glasshouse trial: time of heading (ear emergence)
Format: in vivo
Parameters: unit not given here
Assay conditions: 45 days after sowing
Form: value (number only, do not type unit).

These solved cases illustrate the format of a correct answer.
compound="OC(Cc1ccccc1Cl)(Cn1nc[nH]c1=S)C1(Cl)CC1 (stereo not shown) [Prothioconazole]" assay_endpoint="time of heading of wheat (ears emerged)" assay_value=6.9
compound="CCCN(CC)CC1COC2(CCC(C(C)(C)C)CC2)O1 (stereo not shown) [Spiroxamine]" assay_endpoint="time of heading of wheat (ears emerged)" assay_value=10.8
compound="CO/N=C(/C1=NOCCO1)c1ccccc1Oc1ncnc(Oc2ccccc2Cl)c1F [Fluoxastrobin]" assay_endpoint="time of heading of wheat (ears emerged)" assay_value=11.4

Task item: # lookup: time of heading of wheat (ears emerged) of Cn1cc(C(=O)Nc2ccc(F)cc2-c2ccc(Cl)c(Cl)c2)c(C(F)F)n1 [Bixafen]
Reply: 1.8

====

Tested on: infection-free wheat plants of the cultivar Passat
Assay overview: Glasshouse trial: green leaf area by visual scoring
Format: in vivo
Assay conditions: 68 days after second fungicide application (so in the source); glasshouse
Assay endpoint: green leaf area of the third-from-top leaf (F-2)
Please answer using a numeric value trailed by its unit.

See these solved cases before continuing.
compound="CCCN(CC)CC1COC2(CCC(C(C)(C)C)CC2)O1 (stereo not shown) [Spiroxamine]" assay_value="100 % leaf area"
compound="OC(Cc1ccccc1Cl)(Cn1nc[nH]c1=S)C1(Cl)CC1 (stereo not shown) [Prothioconazole]" assay_value="100 % leaf area"
compound="CO/N=C(/C1=NOCCO1)c1ccccc1Oc1ncnc(Oc2ccccc2Cl)c1F [Fluoxastrobin]" assay_value="100 % leaf area"

Turning now to a further record.
Task item: I am curious: what green leaf area of the third-from-top leaf (F-2) value has been reported for Cn1cc(C(=O)Nc2ccc(F)cc2-c2ccc(Cl)c(Cl)c2)c(C(F)F)n1 [Bixafen] ?
Reply: 100 % leaf area

====

Area [rel.] of the flag leaf for assorted molecules
Test system: infection-free wheat plants of the cultivar Passat
Assay overview: Glasshouse trial: size of the flag leaf
Format: in vivo
Assay conditions: at BBCH 83-85; untreated = 100
Kindly answer with a numeric value in rel., unit omitted.

molecule="CCCN(CC)CC1COC2(CCC(C(C)(C)C)CC2)O1 (stereo not shown) [Spiroxamine]" tested_target="infection-free wheat plants of the cultivar Passat" unit_label=rel. assay_value=96
molecule="OC(Cc1ccccc1Cl)(Cn1nc[nH]c1=S)C1(Cl)CC1 (stereo not shown) [Prothioconazole]" tested_target="infection-free wheat plants of the cultivar Passat" unit_label=rel. assay_value=106

Task item: Name the reported Area [rel.] of the flag leaf value associated with the molecule Cn1cc(C(=O)Nc2ccc(F)cc2-c2ccc(Cl)c(Cl)c2)c(C(F)F)n1 [Bixafen]
Reply: 146

Task item: Requested field: Area [rel.] of the flag leaf. Item: CO/N=C(/C1=NOCCO1)c1ccccc1Oc1ncnc(Oc2ccccc2Cl)c1F [Fluoxastrobin]
Reply: 110

====

Tested on: wheat variety Ritmo
Assay overview: Plot trial in Germany: green leaf area by visual scoring
Type: in vivo
Assay conditions: 14 days after second fungicide application; sprays at BBCH 39 and 59
Listing of entries alongside the reported green leaf area of the second-from-top leaf (F-1).
All answers are understood in % leaf area, so give the number only.

Task item: // lookup green leaf area of the second-from-top leaf (F-1) | system=wheat variety Ritmo | key= CO/N=C(/C1=NOCCO1)c1ccccc1Oc1ncnc(Oc2ccccc2Cl)c1F
Reply: 98.0

Task item: Provide value of green leaf area of the second-from-top leaf (F-1) for this record tested with wheat variety Ritmo: O=C(Nc1ccccc1-c1ccc(Cl)cc1)c1cccnc1Cl
Reply: 91.8

====

Entries and their measured time of heading of wheat (ears emerged) follow.
Test system: infection-free wheat plants of the cultivar Passat
Assay overview: Glasshouse trial: time of heading (ear emergence)
Type: in vivo
Set-up: unit not given here
Assay conditions: 80 days after sowing
Lab note: record the figure alone, no unit after it.

compound=Cn1cc(C(=O)Nc2ccc(F)cc2-c2ccc(Cl)c(Cl)c2)c(C(F)F)n1 tested_target="infection-free wheat plants of the cultivar Passat" assay_value=96.7
compound="OC(Cc1ccccc1Cl)(Cn1nc[nH]c1=S)C1(Cl)CC1 (stereo not shown)" tested_target="infection-free wheat plants of the cultivar Passat" assay_value=94.9
compound="CCCN(CC)CC1COC2(CCC(C(C)(C)C)CC2)O1 (stereo not shown)" tested_target="infection-free wheat plants of the cultivar Passat" assay_value=99.1

Task item: Query (compound): CO/N=C(/C1=NOCCO1)c1ccccc1Oc1ncnc(Oc2ccccc2Cl)c1F ; field requested: time of heading of wheat (ears emerged)
Reply: 93.1

====

Tested on: wheat variety Ritmo
Assay overview: Plot trial in Germany: green leaf area by visual scoring
Type: in vivo
Assay conditions: 7 days after second fungicide application; sprays at BBCH 39 and 59
Assay endpoint: green leaf area of the second-from-top leaf (F-1) (% leaf area)
Form entry: value (% leaf area) — number only.

Past entries and their recorded results:
compound="O=C(Nc1ccccc1-c1ccc(Cl)cc1)c1cccnc1Cl [Boscalid]" tested_target="wheat variety Ritmo" assay_value=94.4
compound="OC(Cc1ccccc1Cl)(Cn1nc[nH]c1=S)C1(Cl)CC1 (centres unmarked) [Prothioconazole]" tested_target="wheat variety Ritmo" assay_value=97.8
compound="CCCN(CC)CC1COC2(CCC(C(C)(C)C)CC2)O1 (centres unmarked) [Spiroxamine]" tested_target="wheat variety Ritmo" assay_value=97.4
compound="Cn1cc(C(=O)Nc2ccc(F)cc2-c2ccc(Cl)c(Cl)c2)c(C(F)F)n1 [Bixafen]" tested_target="wheat variety Ritmo" assay_value=98.4

// switching to the query compound
Task item: What does the data say about its green leaf area of the second-from-top leaf (F-1)? Entry: CO/N=C(/C1=NOCCO1)c1ccccc1Oc1ncnc(Oc2ccccc2Cl)c1F [Fluoxastrobin]
Reply: 98.8

====

Tested on: infection-free wheat plants of the cultivar Passat
Assay overview: Glasshouse trial: green leaf area by visual scoring
Format: in vivo
Assay conditions: 117 days after second fungicide application (so in the source); glasshouse
Assay endpoint: green leaf area of the flag leaf (F)
The number alone won't do; follow it with the unit.

molecule="CO/N=C(/C1=NOCCO1)c1ccccc1Oc1ncnc(Oc2ccccc2Cl)c1F [Fluoxastrobin]" assay_value="12 % leaf area"
molecule="OC(Cc1ccccc1Cl)(Cn1nc[nH]c1=S)C1(Cl)CC1 (stereo not shown) [Prothioconazole]" assay_value="15 % leaf area"
molecule="CCCN(CC)CC1COC2(CCC(C(C)(C)C)CC2)O1 (stereo not shown) [Spiroxamine]" assay_value="3 % leaf area"

Task item: Hello, I am looking for reported green leaf area of the flag leaf (F) with infection-free wheat plants of the cultivar Passat for Cn1cc(C(=O)Nc2ccc(F)cc2-c2ccc(Cl)c(Cl)c2)c(C(F)F)n1 [Bixafen] . Could you help?
Reply: 15 % leaf area

====

Test system: wheat variety Ritmo
Assay overview: Plot trial in Germany: green leaf area by visual scoring
Type: in vivo
Assay conditions: 28 days after second fungicide application; sprays at BBCH 39 and 59
# key: entry, value: green leaf area of the second-from-top leaf (F-1)
The reply should be a number in % leaf area, with the unit left off.

The following compounds have reported results that may help.
compound="OC(Cc1ccccc1Cl)(Cn1nc[nH]c1=S)C1(Cl)CC1 (centres unmarked) [Prothioconazole]" unit_label="% leaf area" assay_value=91.2
compound="Cn1cc(C(=O)Nc2ccc(F)cc2-c2ccc(Cl)c(Cl)c2)c(C(F)F)n1 [Bixafen]" unit_label="% leaf area" assay_value=94.8
compound="CCCN(CC)CC1COC2(CCC(C(C)(C)C)CC2)O1 (centres unmarked) [Spiroxamine]" unit_label="% leaf area" assay_value=69.7
compound="CO/N=C(/C1=NOCCO1)c1ccccc1Oc1ncnc(Oc2ccccc2Cl)c1F [Fluoxastrobin]" unit_label="% leaf area" assay_value=93.5

Please examine the following record next.
Task item: Return reported green leaf area of the second-from-top leaf (F-1); argument: O=C(Nc1ccccc1-c1ccc(Cl)cc1)c1cccnc1Cl [Boscalid]
Reply: 60.0

====

Test system: wheat variety Ritmo
Assay overview: Plot trial in Germany: green leaf area by visual scoring
Type: in vivo
Assay conditions: 21 days after second fungicide application; sprays at BBCH 39 and 59
Listed here are molecules together with their documented green leaf area of the third-from-top leaf (F-2).
Number first, unit second.

Field: example entries. Status: answers known.
molecule="CO/N=C(/C1=NOCCO1)c1ccccc1Oc1ncnc(Oc2ccccc2Cl)c1F [Fluoxastrobin]" assay_value="92.1 % leaf area"
molecule="CCCN(CC)CC1COC2(CCC(C(C)(C)C)CC2)O1 (centres unmarked) [Spiroxamine]" assay_value="78.1 % leaf area"
molecule="Cn1cc(C(=O)Nc2ccc(F)cc2-c2ccc(Cl)c(Cl)c2)c(C(F)F)n1 [Bixafen]" assay_value="94.5 % leaf area"

Task item: Field request: green leaf area of the third-from-top leaf (F-2) | item: O=C(Nc1ccccc1-c1ccc(Cl)cc1)c1cccnc1Cl [Boscalid]
Reply: 61.5 % leaf area

Task item: Look up green leaf area of the third-from-top leaf (F-2) for this molecule: OC(Cc1ccccc1Cl)(Cn1nc[nH]c1=S)C1(Cl)CC1 (centres unmarked) [Prothioconazole]
Reply: 94.9 % leaf area
